# TESTED TARGET: NR2B receptor (Rattus norvegicus, UniProt P35439+Q00960)
# Construct: NMDA, Polyamine source: Wistar Rat cerebral cortex; from tissue; host or cells: Wistar rat cerebral cortex
# Sequence (Q00960 27-1482, other chains not shown): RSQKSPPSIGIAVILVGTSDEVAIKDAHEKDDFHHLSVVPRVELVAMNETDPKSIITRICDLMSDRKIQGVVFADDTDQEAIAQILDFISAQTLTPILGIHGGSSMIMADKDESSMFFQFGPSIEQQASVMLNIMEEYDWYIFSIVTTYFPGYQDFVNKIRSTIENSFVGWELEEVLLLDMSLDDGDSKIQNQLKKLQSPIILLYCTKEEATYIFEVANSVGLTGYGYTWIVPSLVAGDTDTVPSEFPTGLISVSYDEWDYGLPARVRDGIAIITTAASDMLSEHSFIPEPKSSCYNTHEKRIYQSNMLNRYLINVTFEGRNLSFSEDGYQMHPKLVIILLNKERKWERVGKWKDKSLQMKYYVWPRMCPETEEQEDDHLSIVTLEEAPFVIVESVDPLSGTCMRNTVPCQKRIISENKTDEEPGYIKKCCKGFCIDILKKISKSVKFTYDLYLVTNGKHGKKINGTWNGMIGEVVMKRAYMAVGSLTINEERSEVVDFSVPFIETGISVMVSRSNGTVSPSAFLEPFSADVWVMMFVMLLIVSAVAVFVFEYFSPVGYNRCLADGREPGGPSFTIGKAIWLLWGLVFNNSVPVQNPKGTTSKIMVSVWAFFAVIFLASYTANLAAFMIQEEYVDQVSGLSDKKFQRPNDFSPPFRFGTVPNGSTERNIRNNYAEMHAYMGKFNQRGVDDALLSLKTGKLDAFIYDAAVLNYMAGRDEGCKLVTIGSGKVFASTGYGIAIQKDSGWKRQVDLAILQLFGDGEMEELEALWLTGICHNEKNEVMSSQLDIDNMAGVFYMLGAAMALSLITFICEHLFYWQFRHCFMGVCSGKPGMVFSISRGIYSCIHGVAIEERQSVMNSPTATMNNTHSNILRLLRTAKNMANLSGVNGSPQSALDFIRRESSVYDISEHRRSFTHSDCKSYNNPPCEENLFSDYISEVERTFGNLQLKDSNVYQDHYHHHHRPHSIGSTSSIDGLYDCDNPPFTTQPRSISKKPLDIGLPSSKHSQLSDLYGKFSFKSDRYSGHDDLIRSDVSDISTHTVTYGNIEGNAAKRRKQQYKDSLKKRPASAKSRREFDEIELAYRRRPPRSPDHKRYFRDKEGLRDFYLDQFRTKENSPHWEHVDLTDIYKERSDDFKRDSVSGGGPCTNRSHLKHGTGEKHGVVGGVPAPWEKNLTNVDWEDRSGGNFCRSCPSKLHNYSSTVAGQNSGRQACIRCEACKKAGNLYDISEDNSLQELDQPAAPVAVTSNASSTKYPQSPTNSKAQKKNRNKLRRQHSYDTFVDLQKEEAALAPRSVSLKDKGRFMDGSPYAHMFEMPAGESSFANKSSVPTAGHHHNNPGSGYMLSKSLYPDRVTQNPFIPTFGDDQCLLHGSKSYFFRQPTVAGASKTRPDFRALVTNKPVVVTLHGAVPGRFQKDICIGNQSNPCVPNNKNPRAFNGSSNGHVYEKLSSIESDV
# EXPERIMENTAL PROTOCOL: In vitro affinity measurement, [^3H]Ifenprodil radioligand binding (NMDA, Polyamine)
# ASSAY CONTEXT: Wistar Rat cerebral cortex; ligand [^3H]Ifenprodil; 2 hours at 4° C.; six concentrations tested in duplicate
Ki values, listed per item

These solved cases illustrate the format of a correct answer.
INSERT INTO measurements (substance_smiles, endpoint_result) VALUES
  ('COc1ccc(OC)c(CNC(=N)c2ccc(OC(F)(F)F)cc2)c1', '< 11 nM'),
  ('N=C(NCc1cc(Cl)cc(OCCF)c1)c1ccc(OC(F)(F)F)cc1', '< 11 nM'),
  ('N=C(NCc1cc(Cl)cc(Cl)c1)c1ccc(I)cc1', '< 2 nM'),
  ('COc1cc(CNC(=N)c2ccc(OC(F)(F)F)cc2)cc(OC)c1', '< 11 nM'),
  ('N=C(NCc1cc(Br)ccc1OCCF)c1ccc(OC(F)(F)F)cc1', '< 11 nM'),
  ('COc1cccc(CNC(=N)c2ccc(OC(F)(F)F)cc2)c1OC', '> 100 nM'),
  ('N=C(NCc1cccc(Cl)c1)c1ccc(I)cc1', '< 11 nM'),
  ('COc1cc(CNC(=N)c2ccc(OC(F)(F)F)cc2)c(OC)cc1Cl', '< 11 nM');

Record COc1cc(Cl)cc(CNC(=N)c2ccc(OC(F)(F)F)cc2)c1 . Reported Ki: < 11 nM

Record COc1cccc(OC)c1CNC(=N)c1ccc(OC(F)(F)F)cc1 . Reported Ki: < 2 nM
